Molecular target: T1, human matriptase-2 ECD protein his tag (human, UniProt Q8IU80 78-811)
T1 sequence: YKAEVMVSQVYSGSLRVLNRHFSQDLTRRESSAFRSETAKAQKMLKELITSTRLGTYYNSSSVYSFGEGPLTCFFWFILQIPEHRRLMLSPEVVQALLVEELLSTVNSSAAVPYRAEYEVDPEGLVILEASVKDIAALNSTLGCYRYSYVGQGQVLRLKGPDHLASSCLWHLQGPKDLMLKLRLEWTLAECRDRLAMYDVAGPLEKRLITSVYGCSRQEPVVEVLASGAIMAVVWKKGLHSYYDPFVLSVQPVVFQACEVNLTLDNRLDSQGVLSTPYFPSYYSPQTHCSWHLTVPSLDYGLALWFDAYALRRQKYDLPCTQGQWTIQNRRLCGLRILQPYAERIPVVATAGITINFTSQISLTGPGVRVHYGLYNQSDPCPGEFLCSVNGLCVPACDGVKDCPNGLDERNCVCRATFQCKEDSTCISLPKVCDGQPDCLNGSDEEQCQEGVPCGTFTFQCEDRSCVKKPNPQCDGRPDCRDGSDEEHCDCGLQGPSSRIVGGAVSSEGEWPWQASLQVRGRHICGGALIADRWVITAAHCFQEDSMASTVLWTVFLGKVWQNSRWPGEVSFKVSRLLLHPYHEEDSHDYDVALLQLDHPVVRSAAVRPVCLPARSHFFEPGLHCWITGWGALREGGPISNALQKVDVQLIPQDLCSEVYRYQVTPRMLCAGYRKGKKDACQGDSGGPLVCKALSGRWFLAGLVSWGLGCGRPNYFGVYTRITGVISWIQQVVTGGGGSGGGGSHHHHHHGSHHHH
Assay: cell-based or functional assay
PARAMETER_MEASURED: Inhibition enzymatic activity human MTP2 protein (IC50) (nM)
Quick reminder: number only, in nM, skip the unit.

Solved cases (9 shown):
NORI-004 (antibody, human IgG4 S228P, kappa, V domains shown) VH: EVQLVESGGGLVKPGRSLRLSCTGSGFTFGDFGMSWFRQAPGKGLEWVCFIRSKPYGGTTDYAPSVKDRFTISRDDSKDIVYLQMNSLRTEDTAVYYCSRNEILTGYYIFDYWGQGTLVTVSS VL: DIQMTQSPSSLSASLGDRVTITCQASHDITNYLIWYQQKPGKAPRLLIFDASILETGVPSRFSGSGSGTDFTFTISSLQPEDFATYYCQQYYNLPLTFGGGTKVDIKR :: 5.9
NORI-026 (antibody, human IgG4 S228P, kappa, V domains shown) VH: QVQLVESGGGVVQPGRSLRLSCAASGFTFSYFGMHWVRQAPGKGLEWVADISYDGSDENYADSVKGRFTISRDNSKNTLSLQMNSLRAEDTAVYYCAKETYQSLMYLEYWGQGILVTVSS VL: AIQMTQSPSSLSASVGDRVTITCRASQDIRNDLGWYQQKPGKAPKLLIYTAPSLQSGVPSRFSGSGSGTDFTLTIGSLQPEDFATYYCLQDYNYPWTFGQGTKVEIKR :: 5.11
NORI-033 (antibody, human IgG4 S228P, lambda, V domains shown) VH: QLQLQESGPGLVKPSETLSLTCTVSGDSISSHTYWWGWIRQPPGKGLEWIGSMFYSGSTYYNPSLKSRVVISVDTSRNQFSLKVRSVTAADTAVFYCARHNNWGMENYFDDWGQGTLVTVSS VL: SYALTQPPSVSVSPGQTARITCSADALPDQYGYWYQQKPGQAPVLVIYKDSERPSGIPERFSGSSSGTTVTLTISGVQAEDEADYYCQSADSSGSYVVFGGGTKLTVLG :: 2.84
NORI-018 (antibody, human IgG4 S228P, lambda, V domains shown) VH: QLQLVQSGAEVKKPGASVKVSCKASGYTFTTFGIVWVRQAPGQGLEWMGWISGYNGNTKYAQNLQGRVTMTTDTSTSTAYMELRSLRSDDTAIYYCARDRAIAPRFDPWGQGTLVTVSS VL: SYELTQPPSVSVSPGQAASIPCSGDNLGDNFACWYQQKPGQSPVLVIYQDSKRPSGIPERFSGSNSGNTATLTINGTQAMDEADYYCQAWDSSTVVFGGGTKLTVLG :: 2.12
NORI-028 (antibody, human IgG4 S228P, lambda, V domains shown) VH: EVQLVESGGAVVRPGGSLRLSCAISGFILDDYGMNWVRQGPGKGLEWVAGISWNGDSTRYADSVKGRFTISRDNAQNSLYLQMNSLRAEDTALYFCAREYSGDFYYYYYGMDVWGQGTTVTVSS VL: QSALTQPPSASGSPGQSVTISCTGTSSDVGFYNFVSWYQHHPGKAPKLMIYEVSKRPSGVPDRFSGSKSANTASLTVSGLQAEDEADYYCSSYAGSNNLVFGGGTKLTVLG :: 11.8
NORI-023 (antibody, human IgG4 S228P, lambda, V domains shown) VH: QVQLVESGGGLVKPGGSLRLSCAASGFTFSDYYMSWIRQAPGKGLEWVSYISSSGGNRYYADSVKGRFTISRDNAKNSLYLQMNSLRAEDTAVYYCARGGLRYFDWADFWGQGTLVTVSS VL: QSVLTQPPSVSAAPGQKVTISCSGSSSNIGNNYVSWYQQLPGTAPKLLIYDNNKRPSGIPDRFSGSKSGTSATLGIPELQTGDEADYYCGTWDNSLSAGVFGGGTKLTVLG :: 5.45
NORI-030 (antibody, human IgG4 S228P, lambda, V domains shown) VH: QVQLVESGGGVVQPGRSLRLSCAASGFTFSNFDMDWVRQAPGRGLEWVALISYDGSKKYYADSVKGRFTISRDNSKNTLYLQMNSLRGEDTAVYFCAKEGYGGYDGFDYWGQGTLVTVSS VL: QSVLTQPPSVSEAPRQRVTISCSGSTSNIGNNAVNWYQQLPGKAPKLLISYDYVVSSGVSDRFSGSKSGTSASLAISGLQSADEADYYCSTWDDGLNGVVFGGGTKLTVLG :: 1.88
NORI-007 (antibody, human IgG4 S228P, kappa, V domains shown) VH: EVQLVESGGGLVKPGRSLRLSCTGSGFTFGDFGMSWFRQAPGKGLEWVCFIRSKPYGGTTDYAPSVKGRFTISRDDSISIAYLQMNSLTTEDTAVYYCSRNDILTGYYIFDYWGQGTQVTVSS VL: DIQMTQSPSSLSASLGDSITITCQASQDITNYLIWYQHKPGKAPKLLIFDASNLETGVPSRFSGSGSGTDFTFTISSLQPEDYATYYCQQYYNLPLTFGGGTKVDIKR :: 8.79
NORI-001 (antibody, human IgG4 S228P, kappa, V domains shown) VH: QVQLVQSGAEVKKPGASVKVSCKVSGYTLSEFSIHWVRQAPGKGLEWMGGFDPEKGKTIYAQKFQGRVTMTEDTSTDTAYMDLSSLRSEDTAVYYCVTEGHFYGSGVFDFWGQGTLVTVSS VL: DIQMTQSPSSLSASVGDRVTITCRPSQGLRFDFGWYQQRPGKAPRRLIYAASILQSGVPSRFSGSGSGTEFTLTISSLQPEDFATYYCLQHNNYPWTFGQGTKVEIKR :: 10.1

Item: NORI-022 (antibody, human IgG4 S228P, lambda, V domains shown) VH: EVRLVESGGGLVQSGGSLRLSCAASGFTFSTYTMNWVRQAPGKGLEWVSYISIRNSIIDYADSVKGRFTISRDNAKNSLYLQMNSLRDEDTAVYYCAREEFCGTTSCYFLDYWGQGILVTVSS VL: QSVLTQPPSVSGAPGQRVTISCTGSSSNIGAGYDVHWYQQLPGTAPKLLIYGNSNRPSGVPDRFSGSKSGTSASLAITGLQAEDEADYYCQSYDSSLSGYVFGTGTKVTVLG | Inhibition enzymatic activity human MTP2 protein (IC50): 4.36
